The reader will find reported EC50 values listed item by item below.
Target: Glucagon-like peptide 1 receptor (Homo sapiens)
Sequence (P43220 whole entry): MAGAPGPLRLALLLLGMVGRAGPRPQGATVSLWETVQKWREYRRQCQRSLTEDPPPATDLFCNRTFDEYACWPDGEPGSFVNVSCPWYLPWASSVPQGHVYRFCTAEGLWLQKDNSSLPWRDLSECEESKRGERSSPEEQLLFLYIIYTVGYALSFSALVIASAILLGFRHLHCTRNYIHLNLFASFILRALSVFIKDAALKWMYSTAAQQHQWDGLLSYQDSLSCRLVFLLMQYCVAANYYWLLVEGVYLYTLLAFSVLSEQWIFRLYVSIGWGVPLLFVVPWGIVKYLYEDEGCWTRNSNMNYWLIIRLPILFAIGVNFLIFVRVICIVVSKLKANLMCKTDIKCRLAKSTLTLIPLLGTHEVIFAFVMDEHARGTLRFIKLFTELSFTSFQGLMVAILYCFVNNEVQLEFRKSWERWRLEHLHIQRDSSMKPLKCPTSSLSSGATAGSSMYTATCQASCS
Assay: Agonist activity at human GLP1R expressed in CHO cells assessed as stimulation of intracellular [3H]cAMP accumulation after 30 mins by scintillation proximity assay
Assay type: functional, cell-based
reported_endpoint: EC50 (nM)

{"columns": ["structure_as_smiles", "reported_endpoint", "result_value"],
 "data": [
  ["COc1ccc(-c2ccc(C[C@H](NC(=O)[C@H](Cc3ccc(-c4ccccc4)cc3)NC(=O)[C@H](CC(=O)O)NC(=O)[C@H](CO)NC(=O)[C@@H](NC(=O)[C@H](Cc3ccccc3)NC(=O)[C@@H](NC(=O)CNC(=O)[C@H](CCC(=O)O)NC(=O)[C@H](C)NC(=O)[C@@H](N)Cc3cnc[nH]3)[C@@H](C)O)[C@@H](C)O)C(N)=O)cc2)cc1", "EC50", 390],
  ["C[C@H](NC(=O)[C@@H](N)Cc1cnc[nH]1)C(=O)N[C@@H](CCC(=O)O)C(=O)NCC(=O)N[C@H](C(=O)N[C@@H](Cc1ccccc1)C(=O)N[C@H](C(=O)N[C@@H](CO)C(=O)N[C@@H](CC(=O)O)C(=O)N[C@@H](Cc1ccc(-c2ccccc2)cc1)C(=O)N[C@@H](Cc1ccc(-c2ccc(F)cc2)cc1)C(N)=O)[C@@H](C)O)[C@@H](C)O", "EC50", 430],
  ["Cc1ccccc1-c1ccc(C[C@H](NC(=O)[C@H](Cc2ccc(-c3ccccc3C)cc2)NC(=O)[C@H](CC(=O)O)NC(=O)[C@H](CO)NC(=O)[C@@H](NC(=O)[C@H](Cc2ccccc2)NC(=O)[C@@H](NC(=O)CNC(=O)[C@H](CCC(=O)O)NC(=O)[C@H](C)NC(=O)[C@@H](N)Cc2cnc[nH]2)[C@@H](C)O)[C@@H](C)O)C(N)=O)cc1", "EC50", 148],
  ["Cc1ccccc1-c1ccc(C[C@H](NC(=O)[C@H](Cc2ccc(-c3ccccc3)cc2)NC(=O)[C@H](CC(=O)O)NC(=O)[C@H](CO)NC(=O)[C@@H](NC(=O)[C@H](Cc2ccccc2)NC(=O)[C@@H](NC(=O)CNC(=O)[C@H](CCC(=O)O)NC(=O)[C@H](C)NC(=O)[C@@H](N)Cc2cnc[nH]2)[C@@H](C)O)[C@@H](C)O)C(N)=O)cc1", "EC50", 480],
  ["CCCc1ccccc1-c1ccc(C[C@H](NC(=O)[C@H](CC(=O)O)NC(=O)[C@H](CO)NC(=O)[C@@H](NC(=O)[C@H](Cc2ccccc2)NC(=O)[C@@H](NC(=O)CNC(=O)[C@H](CCC(=O)O)NC(=O)[C@H](C)NC(=O)[C@@H](N)Cc2cnc[nH]2)[C@@H](C)O)[C@@H](C)O)C(=O)N[C@@H](Cc2ccc(-c3ccccc3C)cc2)C(N)=O)cc1", "EC50", 93],
  ["Cc1cccc(-c2ccc(C[C@H](NC(=O)[C@H](Cc3ccc(-c4ccccc4)cc3)NC(=O)[C@H](CC(=O)O)NC(=O)[C@H](CO)NC(=O)[C@@H](NC(=O)[C@H](Cc3ccccc3)NC(=O)[C@@H](NC(=O)CNC(=O)[C@H](CCC(=O)O)NC(=O)[C@H](C)NC(=O)[C@@H](N)Cc3cnc[nH]3)[C@@H](C)O)[C@@H](C)O)C(N)=O)cc2)c1", "EC50", 215]
]}

src = ChEMBL document CHEMBL1156009
